Target: Sodium- and chloride-dependent GABA transporter 3 (Homo sapiens, UniProt P48066)
Sequence (P48066 whole entry): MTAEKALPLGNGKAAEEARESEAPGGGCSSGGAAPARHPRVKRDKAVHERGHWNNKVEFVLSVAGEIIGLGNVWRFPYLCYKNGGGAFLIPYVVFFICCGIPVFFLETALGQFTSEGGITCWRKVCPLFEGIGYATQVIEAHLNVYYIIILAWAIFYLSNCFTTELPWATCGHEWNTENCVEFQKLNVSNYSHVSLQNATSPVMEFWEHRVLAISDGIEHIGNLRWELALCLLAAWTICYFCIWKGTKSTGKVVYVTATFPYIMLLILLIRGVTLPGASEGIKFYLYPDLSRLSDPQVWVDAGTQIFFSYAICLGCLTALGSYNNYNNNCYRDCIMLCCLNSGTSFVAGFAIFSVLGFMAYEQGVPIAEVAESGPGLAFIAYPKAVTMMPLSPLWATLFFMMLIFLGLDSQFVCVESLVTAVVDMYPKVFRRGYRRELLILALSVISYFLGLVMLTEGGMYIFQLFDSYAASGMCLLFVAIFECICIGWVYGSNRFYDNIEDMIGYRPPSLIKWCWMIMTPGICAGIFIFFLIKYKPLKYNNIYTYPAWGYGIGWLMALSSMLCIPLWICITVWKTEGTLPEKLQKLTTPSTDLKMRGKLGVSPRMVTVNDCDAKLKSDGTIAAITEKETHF
Test: Compound was tested for its ability to inhibit uptake of [3H]- GABA by cloned human GAT-3 transporter
Measured quantity: pIC50
One number for each entry, as −log10 of the molar value.

O=C(O)[C@@H]1CCC2C[C@H](C(c3ccccc3)c3ccccc3)CCN2C1 (some centres undefined)
2.69
O=C(O)[C@@H]1CCC2CC(=C(c3ccccc3)c3ccccc3)CCN2C1 (some centres undefined)
2.49
O=C(O)[C@H]1CCC2CC(=C(c3ccccc3)c3ccccc3)CCN2C1 (some centres undefined)
3.06

I am curious: what pIC50 value has been reported for O=C(O)[C@H]1CCC2C[C@H](C(c3ccccc3)c3ccccc3)CCN2C1 (some centres undefined) ?
3.11

###

Target: Sodium- and chloride-dependent GABA transporter 2 (Rattus norvegicus, UniProt P31646)
Sequence (P31646 whole entry): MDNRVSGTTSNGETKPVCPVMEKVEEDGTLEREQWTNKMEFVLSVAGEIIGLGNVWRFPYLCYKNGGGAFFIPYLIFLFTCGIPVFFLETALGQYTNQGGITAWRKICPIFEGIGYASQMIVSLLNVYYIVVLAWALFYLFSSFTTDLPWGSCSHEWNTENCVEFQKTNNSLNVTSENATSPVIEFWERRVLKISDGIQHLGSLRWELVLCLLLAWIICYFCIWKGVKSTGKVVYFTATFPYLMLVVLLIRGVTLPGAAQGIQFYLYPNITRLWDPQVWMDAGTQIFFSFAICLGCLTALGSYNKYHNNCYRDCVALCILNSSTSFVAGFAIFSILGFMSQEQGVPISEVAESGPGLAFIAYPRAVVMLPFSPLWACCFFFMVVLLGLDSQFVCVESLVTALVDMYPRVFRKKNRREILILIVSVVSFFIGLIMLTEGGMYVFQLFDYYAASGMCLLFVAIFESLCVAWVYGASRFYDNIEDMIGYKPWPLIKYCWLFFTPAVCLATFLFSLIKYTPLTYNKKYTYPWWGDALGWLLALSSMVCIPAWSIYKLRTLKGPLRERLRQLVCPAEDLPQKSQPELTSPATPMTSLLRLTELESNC
Test: Compound was tested for its ability to inhibit uptake of [3H]- GABA by cloned rat GAT-2 transporte
Would you mind telling me the reported pIC50 of each entry?
Give bare numbers, as −log10 of the molar value.

Answered examples (3):
O=C(O)[C@H]1CCC2C[C@H](C(c3ccccc3)c3ccccc3)CCN2C1 (some centres undefined)
3.17
O=C(O)[C@H]1CCC2CC(=C(c3ccccc3)c3ccccc3)CCN2C1 (some centres undefined)
3.12
O=C(O)[C@@H]1CCC2C[C@H](C(c3ccccc3)c3ccccc3)CCN2C1 (some centres undefined)
3.32

I am curious: what pIC50 value has been reported for O=C(O)[C@@H]1CCC2CC(=C(c3ccccc3)c3ccccc3)CCN2C1 (some centres undefined) ?
3.09

###

Biological target: Sodium- and chloride-dependent GABA transporter 1 (Homo sapiens, UniProt P30531)
Sequence (P30531 whole entry): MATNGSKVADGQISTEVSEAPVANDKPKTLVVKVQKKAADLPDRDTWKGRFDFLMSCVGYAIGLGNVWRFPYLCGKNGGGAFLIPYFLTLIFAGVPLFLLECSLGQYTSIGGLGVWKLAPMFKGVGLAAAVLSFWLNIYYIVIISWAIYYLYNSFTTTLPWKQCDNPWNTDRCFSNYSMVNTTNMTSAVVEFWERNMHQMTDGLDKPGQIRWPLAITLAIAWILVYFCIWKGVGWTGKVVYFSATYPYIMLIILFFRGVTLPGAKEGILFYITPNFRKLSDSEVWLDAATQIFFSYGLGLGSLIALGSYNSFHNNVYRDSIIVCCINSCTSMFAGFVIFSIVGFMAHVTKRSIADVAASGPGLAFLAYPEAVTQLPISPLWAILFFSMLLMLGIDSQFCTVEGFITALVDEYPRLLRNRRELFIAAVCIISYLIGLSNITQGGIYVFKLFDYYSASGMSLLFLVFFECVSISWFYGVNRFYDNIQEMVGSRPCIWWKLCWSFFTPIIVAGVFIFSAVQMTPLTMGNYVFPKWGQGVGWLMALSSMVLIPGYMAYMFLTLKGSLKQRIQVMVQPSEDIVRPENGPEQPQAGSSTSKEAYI
Experiment: Compound was tested for its ability to inhibit uptake of [3H]- GABA by cloned human GAT-1 transporter
Would you mind telling me the reported IC50 of each entry?
Give bare numbers, in µM.

Answered examples (3):
O=C(O)[C@@H]1CCC2C[C@H](C(c3ccccc3)c3ccccc3)CCN2C1 (some centres undefined)
632
O=C(O)[C@H]1CCC2CC(=C(c3ccccc3)c3ccccc3)CCN2C1 (some centres undefined)
809
O=C(O)[C@@H]1CCC2CC(=C(c3ccccc3)c3ccccc3)CCN2C1 (some centres undefined)
270

With those in mind, consider the next compound.
I am curious: what IC50 value has been reported for O=C(O)[C@H]1CCC2C[C@H](C(c3ccccc3)c3ccccc3)CCN2C1 (some centres undefined) ?
270

###

Target: Sodium- and chloride-dependent betaine transporter (Homo sapiens)
Sequence (P48065 whole entry): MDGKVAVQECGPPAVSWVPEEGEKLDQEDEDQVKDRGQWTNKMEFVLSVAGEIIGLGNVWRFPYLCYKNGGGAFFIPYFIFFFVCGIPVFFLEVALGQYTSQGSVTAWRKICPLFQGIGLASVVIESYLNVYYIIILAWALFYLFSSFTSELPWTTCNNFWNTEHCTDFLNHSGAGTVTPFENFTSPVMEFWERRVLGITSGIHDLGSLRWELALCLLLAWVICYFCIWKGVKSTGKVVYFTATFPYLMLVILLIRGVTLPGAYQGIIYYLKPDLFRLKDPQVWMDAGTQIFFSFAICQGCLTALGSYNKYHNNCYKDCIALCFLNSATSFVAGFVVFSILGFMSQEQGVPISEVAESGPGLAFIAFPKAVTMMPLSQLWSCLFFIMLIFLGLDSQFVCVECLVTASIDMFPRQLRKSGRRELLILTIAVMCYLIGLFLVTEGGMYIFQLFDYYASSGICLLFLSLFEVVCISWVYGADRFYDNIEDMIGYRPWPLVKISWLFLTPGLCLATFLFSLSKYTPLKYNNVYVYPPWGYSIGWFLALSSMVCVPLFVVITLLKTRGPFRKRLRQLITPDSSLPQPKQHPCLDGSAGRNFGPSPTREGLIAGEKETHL
Assay: Compound was tested for its ability to inhibit uptake of [3H]- GABA by cloned human BGT-1 transporter
Would you mind telling me the reported pIC50 of each entry?
Numbers only, as −log10 of the molar value.

Answered examples (3):
O=C(O)[C@H]1CCC2CC(=C(c3ccccc3)c3ccccc3)CCN2C1 (some centres undefined)
3.47
O=C(O)[C@@H]1CCC2CC(=C(c3ccccc3)c3ccccc3)CCN2C1 (some centres undefined)
3.36
O=C(O)[C@@H]1CCC2C[C@H](C(c3ccccc3)c3ccccc3)CCN2C1 (some centres undefined)
2.54

With those in mind, consider the next compound.
I am curious: what pIC50 value has been reported for O=C(O)[C@H]1CCC2C[C@H](C(c3ccccc3)c3ccccc3)CCN2C1 (some centres undefined) ?
3.09

Reference source for all entries: ChEMBL document CHEMBL1129108
